# target-entity: T1, Recombinant MBP-mutCALR Type 1 fusion protein (human)
# T1 construct: custom made at Cepter; also called recombinant mutCALR protein
# experiment-description: SPR, IgG captured, 1:1 fit, Exp. 2
pKd overview
Lab note: report pKd as minus log10 of the concentration in molar units, number only.

Field: example entries. Status: answers known.
binder: anti-mutCALR antibody clone 69 (antibody, human IgG1, lambda, N297A, V domains shown, human IgG1 N297A variant of clone 6) VH: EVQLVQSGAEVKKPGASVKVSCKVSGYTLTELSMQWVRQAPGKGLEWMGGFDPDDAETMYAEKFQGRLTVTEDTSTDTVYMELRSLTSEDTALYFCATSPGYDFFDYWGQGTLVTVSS VL: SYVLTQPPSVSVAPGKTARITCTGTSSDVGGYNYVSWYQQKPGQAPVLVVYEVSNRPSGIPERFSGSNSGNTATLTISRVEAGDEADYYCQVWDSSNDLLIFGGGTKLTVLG
pKd: 9.28

binder: anti-mutCALR antibody clone 172 (antibody, human IgG1, lambda, N297A, V domains shown, human IgG1 N297A variant of clone 17) VH: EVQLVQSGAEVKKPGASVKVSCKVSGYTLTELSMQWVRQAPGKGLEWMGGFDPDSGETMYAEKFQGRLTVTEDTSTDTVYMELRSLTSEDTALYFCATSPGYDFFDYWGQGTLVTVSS VL: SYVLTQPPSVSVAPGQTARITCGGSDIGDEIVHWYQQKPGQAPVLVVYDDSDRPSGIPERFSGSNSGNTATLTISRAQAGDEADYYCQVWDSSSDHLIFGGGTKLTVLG
pKd: 8.65

binder: anti-mutCALR antibody clone 53 (antibody, human IgG1, lambda, V domains shown, human IgG1) VH: QVQLVQSGAEVKKPGASVKVSCKVSGYTLTELSMHWVRQAPGKGLEWMGGFDPEDGETIYAQKFQGRVTMTEDTSTDTAYMELSSLRSEDTAVYYCATDIQGLAEFDYWGQGTLVTVSS VL: QSALTQPRSVSGSPGQSVTISCTGTNTDVGAYIDVSWYQQHPGKAPKLIIYDVSKWPSGVPDRFSGSKSGNTASLTISGLQAEDEADYYCCSYAGNHSFSFGGGTKVTVLG
pKd: 7.77

binder: anti-mutCALR antibody clone 182 (antibody, human IgG1, lambda, N297A, V domains shown, human IgG1 N297A variant of clone 17) VH: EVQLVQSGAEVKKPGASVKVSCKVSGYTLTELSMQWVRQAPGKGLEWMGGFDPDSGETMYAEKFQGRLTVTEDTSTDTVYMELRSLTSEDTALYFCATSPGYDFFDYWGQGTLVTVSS VL: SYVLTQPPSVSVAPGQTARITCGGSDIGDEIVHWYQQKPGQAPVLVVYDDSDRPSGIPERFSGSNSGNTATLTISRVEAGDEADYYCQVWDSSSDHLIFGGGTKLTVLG
pKd: 8.91

binder: anti-mutCALR antibody clone 57 (antibody, human IgG1, lambda, N297A, V domains shown, human IgG1 N297A variant of clone 6) VH: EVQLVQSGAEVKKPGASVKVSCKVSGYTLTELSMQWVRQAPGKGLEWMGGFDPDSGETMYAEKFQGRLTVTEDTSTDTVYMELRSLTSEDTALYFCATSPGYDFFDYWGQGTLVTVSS VL: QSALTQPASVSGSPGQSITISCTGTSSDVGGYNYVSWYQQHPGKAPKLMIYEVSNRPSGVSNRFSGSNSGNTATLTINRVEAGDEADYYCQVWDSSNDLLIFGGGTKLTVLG
pKd: 9.20

binder: anti-mutCALR antibody clone 40 (antibody, human IgG1, lambda, V domains shown, human IgG1) VH: EVQLVQSGAEVKKPGASVKVSCKVSGYTLTESSMHWVRQAPGKGLEWMGLVDPEDGETIYAQKFQGRVTMTEDTSTDTAYMELSSLRSEDTAVYYCAREEWSGDGDDAFDIWGQGTMVTVSS VL: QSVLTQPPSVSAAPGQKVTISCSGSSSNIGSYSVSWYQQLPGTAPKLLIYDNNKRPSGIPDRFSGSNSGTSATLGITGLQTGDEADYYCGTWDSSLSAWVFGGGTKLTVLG
pKd: 9.45

binder: anti-mutCALR antibody clone 73 (antibody, human IgG1, lambda, N297A, V domains shown, human IgG1 N297A variant of clone 6) VH: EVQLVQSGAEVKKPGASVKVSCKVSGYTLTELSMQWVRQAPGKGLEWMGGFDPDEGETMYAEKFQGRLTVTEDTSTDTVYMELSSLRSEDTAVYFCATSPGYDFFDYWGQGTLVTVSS VL: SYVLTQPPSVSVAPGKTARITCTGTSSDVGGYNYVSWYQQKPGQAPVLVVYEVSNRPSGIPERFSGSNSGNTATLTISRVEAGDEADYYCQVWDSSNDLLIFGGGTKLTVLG
pKd: 9.12

binder: anti-mutCALR antibody clone 70 (antibody, human IgG1, lambda, N297A, V domains shown, human IgG1 N297A variant of clone 6) VH: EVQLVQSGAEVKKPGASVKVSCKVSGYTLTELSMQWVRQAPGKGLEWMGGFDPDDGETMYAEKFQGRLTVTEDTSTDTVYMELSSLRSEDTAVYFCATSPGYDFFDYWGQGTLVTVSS VL: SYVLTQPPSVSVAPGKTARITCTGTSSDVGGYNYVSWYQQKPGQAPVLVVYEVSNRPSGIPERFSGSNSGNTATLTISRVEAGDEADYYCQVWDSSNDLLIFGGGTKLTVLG
pKd: 9.02

## Input Fill in the blank: the reported pKd of anti-mutCALR antibody clone 174 (antibody, human IgG1, lambda, N297A, V domains shown) VH: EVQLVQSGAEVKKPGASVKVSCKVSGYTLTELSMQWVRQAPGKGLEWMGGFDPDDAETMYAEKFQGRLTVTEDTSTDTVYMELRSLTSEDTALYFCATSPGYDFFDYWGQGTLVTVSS VL: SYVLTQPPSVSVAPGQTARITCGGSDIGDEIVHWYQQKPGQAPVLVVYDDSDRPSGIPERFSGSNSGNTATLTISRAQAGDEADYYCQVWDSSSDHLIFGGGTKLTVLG is ____.
## Output 9.28

## Input Then this binder: anti-mutCALR antibody clone 36 (antibody, human IgG1, lambda, V domains shown, human IgG1) VH: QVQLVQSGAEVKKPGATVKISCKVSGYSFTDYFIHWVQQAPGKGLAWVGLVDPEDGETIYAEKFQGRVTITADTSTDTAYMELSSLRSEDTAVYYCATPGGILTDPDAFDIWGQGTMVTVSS VL: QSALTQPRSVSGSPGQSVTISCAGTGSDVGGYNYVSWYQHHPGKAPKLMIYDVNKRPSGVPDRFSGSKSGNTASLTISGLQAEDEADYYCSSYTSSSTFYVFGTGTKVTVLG
## Output 8.91
